# test.system: Serine/threonine-protein kinase D3 (Homo sapiens);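 also: values are mean inhibition figures against PRKD3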
# cond: at 1 µM
Consider the following molecules and their measured inhibition readings.

smiles.data	unit.name	inhibition
COc1cc(Nc2ncc3c(C)nc(-c4cccc(Oc5ccccc5)c4)n3n2)cc(OC)c1OC	%	3.77
NC(=O)c1cc(-c2ccncc2)cc(-c2ccccc2)c1N	%	6.16
O=C(Nc1n[nH]c2cc(-c3cc(F)ccc3F)ccc12)C1CC1	%	3.98
FC(F)(F)c1cccc(Nc2nccc(-c3cnn4nc(-c5ccccc5)ccc34)n2)c1	%	2.61
CCS(=O)(=O)c1ccc(OC)c(Nc2ncc(-c3cccc(-c4ccccc4F)c3)o2)c1	%	1.54

* * *

# test.system: Homeodomain-interacting protein kinase 4 (Homo sapiens) (UniProt Q8NE63);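 also: reported as mean inhibition, part of the GSK PKIS dataset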
# Sequence (Q8NE63 whole entry): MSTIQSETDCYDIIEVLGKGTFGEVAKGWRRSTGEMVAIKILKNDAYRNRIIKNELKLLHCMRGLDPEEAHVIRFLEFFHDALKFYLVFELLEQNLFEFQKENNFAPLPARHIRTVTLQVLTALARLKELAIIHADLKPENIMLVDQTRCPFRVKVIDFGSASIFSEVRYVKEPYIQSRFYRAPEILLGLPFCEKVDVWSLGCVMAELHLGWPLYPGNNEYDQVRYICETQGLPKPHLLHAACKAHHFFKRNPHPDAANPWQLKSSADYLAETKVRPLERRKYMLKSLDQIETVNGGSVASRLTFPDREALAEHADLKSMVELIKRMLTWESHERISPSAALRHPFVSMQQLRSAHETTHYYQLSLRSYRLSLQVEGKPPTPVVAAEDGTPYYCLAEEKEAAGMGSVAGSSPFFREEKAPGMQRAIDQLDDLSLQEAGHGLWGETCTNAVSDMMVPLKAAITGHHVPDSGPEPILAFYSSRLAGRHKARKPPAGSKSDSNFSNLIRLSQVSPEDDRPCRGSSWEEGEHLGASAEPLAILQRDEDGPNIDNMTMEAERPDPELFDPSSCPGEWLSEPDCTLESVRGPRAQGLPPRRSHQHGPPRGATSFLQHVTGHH
# cond: at 0.1 µM
measured.property: inhibition (%)

molecule	measured.property	recorded.measurement
Cc1nnc(-c2ccc(C)c(-c3ccc(C(=O)NCc4ccc(Cl)cc4)cc3)c2)o1	inhibition	-0.69
CN1CCN(CCCNc2nc3ccc(Oc4ccc(NC(=O)Nc5cc(C(F)(F)F)ccc5F)cc4)cc3[nH]2)CC1	inhibition	6.45
NS(=O)(=O)c1ccc(N/N=C2\C(=O)Nc3ccc(-c4cnco4)cc32)cc1	inhibition	3.05
NS(=O)(=O)c1ccc(Nc2cc(-c3ccc(O)c(F)c3)n[nH]2)cc1	inhibition	1.96
Cc1ccc(NC(=O)c2ccoc2)cc1-c1ccc(C(=O)NCC2CC2)cc1	inhibition	0.84
Nc1nccc(-c2c(-c3ccc(F)cc3)ncn2C2CCC(O)CC2)n1 (stereo not given)	inhibition	1.22
Clc1ccc(CNc2nccc(-c3cnn4ncccc34)n2)cc1	inhibition	11.9
O=C(Nc1n[nH]c2nc(-c3ccc(O)cc3)c(Br)cc12)C1CC1	inhibition	2.65
COc1cc(Nc2ncc(-c3ccccc3)o2)cc(OC)c1OC	inhibition	0.61
COc1cccc(-n2cnc3c(N/N=C/c4ccncc4)ncnc32)c1	inhibition	-0.66

* * *

# test.system: Ribosomal protein S6 kinase alpha-1 (Homo sapiens) (UniProt Q15418);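 also: values are mean percent inhibition of RSK1 measured in the GSK PKIS kinase inhibitor set screen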
# Sequence (Q15418 whole entry): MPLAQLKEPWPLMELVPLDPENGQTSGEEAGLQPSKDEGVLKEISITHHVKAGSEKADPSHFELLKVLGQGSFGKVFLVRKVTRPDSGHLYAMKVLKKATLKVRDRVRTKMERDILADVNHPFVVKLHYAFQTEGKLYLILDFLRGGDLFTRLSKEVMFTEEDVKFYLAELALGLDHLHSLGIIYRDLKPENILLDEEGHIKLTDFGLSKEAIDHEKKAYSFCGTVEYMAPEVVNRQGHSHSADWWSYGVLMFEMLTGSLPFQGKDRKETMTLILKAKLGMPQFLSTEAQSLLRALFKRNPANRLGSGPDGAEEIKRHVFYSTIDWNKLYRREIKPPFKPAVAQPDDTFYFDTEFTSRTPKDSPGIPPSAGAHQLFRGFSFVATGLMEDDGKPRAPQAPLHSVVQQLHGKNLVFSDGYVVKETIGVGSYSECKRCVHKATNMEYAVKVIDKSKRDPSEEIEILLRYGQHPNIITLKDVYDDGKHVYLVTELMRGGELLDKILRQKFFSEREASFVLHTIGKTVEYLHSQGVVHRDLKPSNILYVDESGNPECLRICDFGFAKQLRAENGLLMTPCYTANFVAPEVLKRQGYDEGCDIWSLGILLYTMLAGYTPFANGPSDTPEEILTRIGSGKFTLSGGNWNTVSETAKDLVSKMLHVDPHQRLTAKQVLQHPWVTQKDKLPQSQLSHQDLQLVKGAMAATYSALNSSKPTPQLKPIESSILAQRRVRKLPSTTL
# cond: at 0.1 µM

smiles.data	unit.name	inhibition
NC(=O)c1cc(-c2ccncc2)cc(-c2ccccc2)c1N	%	1.01
COc1cc(Nc2ncc(-c3ccccc3)o2)cc(OC)c1OC	%	0.23
NS(=O)(=O)c1ccc(N/N=C2\C(=O)Nc3ccc(C(=O)NCCCn4ccnc4)cc32)cc1	%	2.58
COc1cccc(-n2cnc3c(N/N=C/c4ccncc4)ncnc32)c1	%	2.62
NC(=O)Cc1ccccc1Oc1nccc(-c2c(-c3ccc(F)cc3)ncn2C2CCNCC2)n1	%	1.2
CN(C)CCCNc1nccc(-c2c(-c3ccc(F)cc3)nn3cc(C(F)(F)F)ccc23)n1	%	2.04
NCc1ccc(-n2c(-c3nonc3N)nc3cnccc32)cc1	%	56.2
C/C(Nc1ccc(S(N)(=O)=O)cc1)=C1/C(=O)Nc2ccccc21	%	1.62
CCC(=O)Nc1ccc(C)c(-c2ccc(C(=O)NCC3CC3)cc2)c1	%	0.56
CCc1cccc(CC)c1/C=C/c1cncc(C(=O)NC)c1	%	1.4

* * *

# test.system: Cyclin-dependent kinase 1 (Homo sapiens);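 also: mean percent inhibition of the CDK1/cyclin B complex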
# cond: at 1 µM
Entries and their inhibition

smiles.data	inhibition / %
NC(=O)c1cc(-c2ccncc2)cc(-c2ccccc2)c1N	1.56
COc1cccc(/C=N/Nc2ncnc3c2cnn3-c2cccc(OC)c2)c1	4.16
NS(=O)(=O)c1ccc(Nc2cc(-c3ccc(O)c(F)c3)n[nH]2)cc1	51.7
FC(F)(F)c1cccc(Nc2nccc(-c3cnn4nc(-c5ccccc5)ccc34)n2)c1	4.07
